Values compiled from patent US7452997B2.

system: human CB1 receptor (Homo sapiens, UniProt P21554)
Construct: expressed in transfected cells; host or cells: SK-N-MC cells, stably transfected with pcDNA3 CB-1 (human); semi-purified membrane pellet
Sequence (P21554 whole entry): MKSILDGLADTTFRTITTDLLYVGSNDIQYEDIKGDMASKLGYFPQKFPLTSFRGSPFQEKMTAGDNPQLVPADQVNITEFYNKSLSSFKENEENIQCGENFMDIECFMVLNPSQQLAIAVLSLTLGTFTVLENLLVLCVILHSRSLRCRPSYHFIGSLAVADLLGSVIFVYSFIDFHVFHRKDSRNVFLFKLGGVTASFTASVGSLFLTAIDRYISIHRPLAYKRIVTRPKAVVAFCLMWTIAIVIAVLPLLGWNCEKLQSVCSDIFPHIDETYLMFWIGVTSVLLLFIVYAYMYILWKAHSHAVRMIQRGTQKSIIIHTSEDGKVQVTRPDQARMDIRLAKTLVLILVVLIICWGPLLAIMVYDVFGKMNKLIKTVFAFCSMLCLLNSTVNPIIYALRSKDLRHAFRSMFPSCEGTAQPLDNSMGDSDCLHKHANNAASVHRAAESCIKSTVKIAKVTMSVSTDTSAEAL
measurement description: biochemical
Assay type: binding
// assign criterion met if IC50 falls strictly below 400 nM, else criterion not met (ties count as criterion not met)

In [3]: df
Out[3]:
                                    molecule       answer_label
 0  O=C(NC12CC3CC(CC(C3)C1)C2)c1nn(-c2ccc(F)cc2)c2c1CCCC2CCc1ccccc1 (stereo not shown)      criterion met
 1  COC(=O)C1CCc2c(c(C(=O)NC3C4CC5CC(C4)CC3C5)nn2C2CCCCC2)C1 (stereo not shown)  criterion not met
 2  CCOC(=O)[C@H]1C2CCC(C2)[C@H]1NC(=O)c1nn(-c2ccc(F)cc2)c2c1CCCC2c1ccccc1 (stereo partly shown)  criterion not met
 3  CC(C)(C)C1CCc2c(c(C(=O)NC3C4(C)CCC(C4)C3(C)C)nn2C2CCCCC2)C1 (stereo not shown)  criterion not met
 4  CCOC(=O)C1C2CCC(C2)C1NC(=O)c1nn(-c2ccc(F)cc2)c2c1CCCC2 (stereo not shown)  criterion not met
 5  C[C@H](NC(=O)c1nn(C2CCCCC2)c2c1CCCC2)C12CC3CC(CC(C3)C1)C2  criterion not met
 6  O=C(NN1CCCCC1)c1nn(-c2ccc(Cl)cc2Cl)c2c1CCCC2=Cc1ccsc1      criterion met
 7  O=C(NC1C2CC3CC(C2)CC1C3)c1nn(C2CCCCC2)c2c1CC(NC(=O)C(F)(F)F)CC2 (stereo not shown)  criterion not met
 8  CC12CCC(C1)C(C)(C)C2NC(=O)c1nn(Cc2ccccc2)c2c1CCCC2c1ccccc1 (stereo not shown)      criterion met
 9  CCC(NC(=O)c1nn(C2CCCCC2)c2c1CCCC2)C1CCCCC1 (stereo not shown)      criterion met
10  CC(NC(=O)CCc1nn(C2CCCCC2)c2c1CCCC2)C12CC3CC(CC(C3)C1)C2 (stereo not shown)  criterion not met
11  COC(=O)C(Cc1c[nH]c2ccccc12)NC(=O)c1nn(Cc2ccccc2)c2c1CCCC2 (stereo not shown)      criterion met
12  Cc1ccc(Cn2nc(C(=O)NC3C4(C)CCC(C4)C3(C)C)c3c2CCCC3)cc1 (stereo not shown)      criterion met

---

Parameter: IC50. Scope: all listed entries.
system: human CB2 receptor (Homo sapiens, UniProt P34972)
Sequence (P34972 whole entry): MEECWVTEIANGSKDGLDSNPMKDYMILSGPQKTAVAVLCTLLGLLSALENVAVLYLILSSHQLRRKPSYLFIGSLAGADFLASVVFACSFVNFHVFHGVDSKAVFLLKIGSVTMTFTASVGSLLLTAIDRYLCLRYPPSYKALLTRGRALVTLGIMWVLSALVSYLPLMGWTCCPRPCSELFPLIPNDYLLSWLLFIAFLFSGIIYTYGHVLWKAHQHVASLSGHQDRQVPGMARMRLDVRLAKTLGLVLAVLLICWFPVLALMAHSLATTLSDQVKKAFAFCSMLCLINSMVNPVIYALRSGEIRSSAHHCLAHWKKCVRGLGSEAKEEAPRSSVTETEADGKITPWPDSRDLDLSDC
measurement description: Binding assay, cannabinoid CB2 receptor ([3H]-CP-55,940 displacement)
condition: Cannabinoid CB2 Receptor Binding IC50, human CB2 receptor, SK-N-MC cell membranes, radioligand CP-55,940 0.2 nM
measurement type: IC50 (nM)

>>> df
                                   molecule                                    system  units_symbol  measured_value
0  CCOC(=O)[C@H]1C2C=CC(C2)[C@H]1NC(=O)c1c2c(nn1Cc1ccccc1)CCCC2 (stereo partly drawn)  human CB2 receptor (Homo sapiens, UniProt P34972)            nM            1300
1  CCOC(=O)C1CCc2c(C(=O)N[C@H](C)C3CCCCC3)nn(C3CCCCC3)c2C1 (stereo partly drawn)  human CB2 receptor (Homo sapiens, UniProt P34972)            nM              45
2  CCN(C(=O)c1nn(C2CCCCC2)c2c1CCCC2)[C@H](C)C1CCCCC1  human CB2 receptor (Homo sapiens, UniProt P34972)            nM             240
